Exercise: state measured normalized growth for each of the molecules provided.
test: chemical genetic growth profiling, strain panel (AID 1159580);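 further: tested at 20 µM; growth read once vehicle control cultures reached saturation at 30 °C; 1 = growth at the plate median or of vehicle wells; lower values mean less growth of the strain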; details: S. cerevisiae deletion strains, growth OD, locus YJL095W, strain BCK1, hits give low values
In all, about 5,500 compounds went through this assay and about 2,000 (36%) were called active. Another 18% or so got no clear call; they are omitted. Some of the results follow.
Answers are plain numbers.

The cases that follow already have their normalized growth on record.
If you can, please state the reported normalized growth value of `CC1(C)C=Cc2c(cc3occ(-c4ccc5c(c4)OCO5)c(=O)c3c2O)O1` .
0.927

Another: CC(O)Cn1cnc2c1c(=O)n(C)c(=O)n2C (configuration not stated)
1.05

How about COC(=O)C[C@H]1C(C)(C)C(OC(C)=O)[C@]2(O)C=C3C4CC(=O)O[C@@H](c5ccoc5)[C@]4(C)CCC3[C@@]1(C)C2=O (some centres not stated) ?
1.03

Provide the reported normalized growth of each entry below, same order.
1. Cc1oc(-c2ccc(Cl)cc2)cc1C(=O)N1CCN(c2ccc(C(F)(F)F)cn2)CC1
2. COc1ccc2ccc(=O)oc2c1CC=C(C)C
3. O=c1[nH]c2ccccc2n1CCCN1CCC(n2c(=O)[nH]c3cc(Cl)ccc32)CC1
4. N/C(=N/OC(=O)c1ccccc1Cl)c1ccc2nonc2c1
5. N#C/C(=N/Nc1ccc(C(F)(F)F)cc1)C(=O)C1CC1
6. Fc1ccc(Nc2nc(-c3ccc(F)c(F)c3)cs2)c(F)c1
7. COc1cc2c(cc1-c1coc3c4c(c(OC)cc3c1=O)OC(C)(C)C=C4)OCO2
8. CC(/C=C/c1ccccc1)=N/OC(=O)c1ccccc1Cl

0.905
0.566
0.997
0.904
0.913
0.133
0.809
0.903

Quick batch: normalized growth for everything below.
1. CC(=O)N[C@@H](CC(=O)O)C(=O)O
2. CSc1sc(-c2ccn[nH]2)c(-c2ccccc2)c1C#N

1: 1.02; 2: 0.974
